Recorded values, source patent US20240252488A1.

target: UniProt Q8NB16; assay: MLKL degradation assay in HepG2 cell line (western blot); type: cell-based; parameters: endogenous in cells; host or cells: HepG2 or HaCaT; settings: compound 10 μM; cell line not given
PROPERTY_NAME: Degradation assay (Degradation %) 10 μM

Solved entries:
MOLECULE: Nc1ncc(-c2cnn([C@@H]3CCN(CC4CCN(C(=O)CNc5ccc6c(c5)C(=O)N(C5CCC(=O)NC5=O)C6=O)CC4)C3)c2)nc1C(=O)OC(C(=O)Nc1ccc(F)cc1)c1ccccc1 (stereo partly shown) [TDH-286]
Degradation assay (Degradation %) 10 μM: 71.94
//
MOLECULE: Nc1ncc(-c2cnn(C3CCN(CCC4CCN(C(=O)c5ccc6c(c5)CN(C5CCC(=O)NC5=O)C6=O)CC4)CC3)c2)nc1C(=O)O[C@@H](C(=O)Nc1ccc(F)cc1)c1ccccc1 (stereo partly shown) [TDH-547]
Degradation assay (Degradation %) 10 μM: 68.21
//
MOLECULE: Nc1ncc(-c2cnn(C3CCN(CCOCCOCCNC(=O)COc4cccc5c4C(=O)N(C4CCC(=O)NC4=O)C5=O)CC3)c2)nc1C(=O)O[C@@H](C(=O)Nc1ccc(F)cc1)c1ccccc1 (stereo partly shown) [TDH-135]
Degradation assay (Degradation %) 10 μM: 57.93

P. Nc1ncc(-c2cnn(C3CCN(C(=O)COC4CCN(c5ccc6c(c5)C(=O)N(C5CCC(=O)NC5=O)C6=O)CC4)CC3)c2)nc1C(=O)O[C@@H](C(=O)Nc1ccc(F)cc1)c1ccccc1 (stereo partly shown) [TDH-400]
Q. Nc1ncc(-c2cnn(C3CCN(C(=O)COCCOCCNC(=O)C4CCN(c5ccc6c(c5)C(=O)N(C5CCC(=O)NC5=O)C6=O)CC4)CC3)c2)nc1C(=O)O[C@@H](C(=O)Nc1ccc(F)cc1)c1ccccc1 (stereo partly shown) [TDH-195]
Req: For the pair P and Q , which member has the lower Degradation assay (Degradation %) 10 μM number? Give the label under which the chosen entry appears.
Resp: Q

---

biological target: MLKL (Homo sapiens, UniProt Q8NB16); assay: MLKL degradation assay in HepG2 cell line (western blot); type: cell-based; design: endogenous in cells; host or cells: HepG2 or HaCaT; conditions: compound 1 μM; cell line not given
Sequence (Q8NB16 whole entry): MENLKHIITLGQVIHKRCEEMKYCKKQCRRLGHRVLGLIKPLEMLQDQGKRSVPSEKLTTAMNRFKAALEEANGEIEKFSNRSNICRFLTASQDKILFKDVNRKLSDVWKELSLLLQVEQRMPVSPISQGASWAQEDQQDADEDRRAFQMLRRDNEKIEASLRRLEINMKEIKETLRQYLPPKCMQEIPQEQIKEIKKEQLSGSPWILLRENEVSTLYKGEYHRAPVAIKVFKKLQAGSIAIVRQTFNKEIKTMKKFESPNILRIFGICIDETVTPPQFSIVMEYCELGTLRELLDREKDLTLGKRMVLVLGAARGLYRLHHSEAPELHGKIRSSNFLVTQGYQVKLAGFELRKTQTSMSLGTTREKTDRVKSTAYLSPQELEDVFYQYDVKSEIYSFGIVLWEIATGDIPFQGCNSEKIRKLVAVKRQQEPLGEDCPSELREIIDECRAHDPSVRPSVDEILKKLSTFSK
PROPERTY_NAME: Degradation assay (Degradation %) 1 μM

Solved entries:
COMPOUND: Nc1ncc(-c2cnn(C3CCN(CCCCCCCCCCNC(=O)C4CN(c5cccc6c5C(=O)N(C5CCC(=O)NC5=O)C6=O)C4)CC3)c2)nc1C(=O)O[C@@H](C(=O)Nc1ccc(F)cc1)c1ccccc1 (stereo partly drawn)
Degradation assay (Degradation %) 1 μM: 49.22
--
COMPOUND: Nc1ncc(-c2cnn(C3CCN(CCCN4CC5CN(C(=O)CCc6ccc7c(c6)C(=O)N(C6CCC(=O)NC6=O)C7=O)CC5C4)CC3)c2)nc1C(=O)O[C@@H](C(=O)Nc1ccc(F)cc1)c1ccccc1 (stereo partly drawn)
Degradation assay (Degradation %) 1 μM: 46.42

a. Nc1ncc(-c2cnn(C3CCN(CCOCCOCCOCCNC(=O)C4CCN(c5ccc6c(c5)C(=O)N(C5CCC(=O)NC5=O)C6=O)CC4)CC3)c2)nc1C(=O)O[C@@H](C(=O)Nc1ccc(F)cc1)c1ccccc1 (stereo partly drawn)
b. Nc1ncc(-c2cnn(C3CN(CC4CCN(C(=O)CNc5cccc6c5C(=O)N(C5CCC(=O)NC5=O)C6=O)CC4)C3)c2)nc1C(=O)OC(C(=O)Nc1ccc(F)cc1)c1ccccc1 (stereo not drawn)
Req: For the pair a and b , which member has the lower Degradation assay (Degradation %) 1 μM number? Give the label under which the chosen entry appears.
Resp: a

a. Nc1ncc(-c2cnn(C3CCN(CCC4CCN(C(=O)C5CCN(c6ccc7nnn(C8CCC(=O)NC8=O)c(=O)c7c6)CC5)CC4)CC3)c2)nc1C(=O)OC(C(=O)Nc1ccc(F)cc1)c1ccccc1 (stereo not drawn)
b. Nc1ncc(-c2cnn(C3CCN(CCOC4CCN(C(=O)Cc5cccc(NC6=CC(=O)N(C7CCC(=O)NC7=O)C6=O)c5)CC4)CC3)c2)nc1C(=O)O[C@@H](C(=O)Nc1ccc(F)cc1)c1ccccc1 (stereo partly drawn)
Req: For the pair a and b , which member has the lower Degradation assay (Degradation %) 1 μM number? Give the label under which the chosen entry appears.
Resp: a
